- testTarget: Carbonic anhydrase 2 (Homo sapiens) (UniProt P00918)
- measurementDescription: CAII small-molecule binders, profiling panel, biochemical, small-molecule microarray, Alexa647-labelled CAII (AID 1122)
- assayContext: CAII-A647 binding fluorescence, higher = more signal
Please go through the items and note down their composite z-score.
Give bare numbers.

{"columns": ["structureNotation", "testTarget", "measuredNumber"],
 "data": [
  ["CCN1C(=O)[C@H]2[C@H]3[C@H](O)[C@H](O)CC(=NOCC=C(C)CCC=C(C)C)[C@@H]3CC[C@H]2C1=O", "Carbonic anhydrase 2 (Homo sapiens) (UniProt P00918)", 0.0577],
  ["COC(=O)[C@@H]1CC[C@H](C)[C@@H](c2ccc(Br)cc2)N1", "Carbonic anhydrase 2 (Homo sapiens) (UniProt P00918)", 0.665],
  ["CC(=O)OC[C@H]1O[C@H](C#CCC2CCCCC2)C=C[C@@H]1OC(C)=O", "Carbonic anhydrase 2 (Homo sapiens) (UniProt P00918)", 0.494]
]}

Record C#CCCCON=C1C[C@@H](O)[C@@H](O)[C@@H]2[C@@H]3C(=O)N(CC)C(=O)[C@@H]3CC[C@H]12 : what is its composite z-score with Carbonic anhydrase 2 (Homo sapiens) (UniProt P00918)?
0.728
